molecular target: T1, 161P2F10B variant 1 (human 161P2F10B), on the cell surface (human, UniProt O14638 1-875); assay: FACS titration on KU-812 cells, one site binding fit
T1 construct: Cell surface pyrophosphatase/phosphodiesterase; also called 161P2F10B v.1; CD203c
Could you please mark criterion met for values of Kd below 0.5 nM and criterion not met for values at or above it?

INSERT INTO results (binder, assigned_category) VALUES
  ('Ha16-1(1)11 (antibody, V domains shown, also called ATCC PTA-7450) VH: GPGLVKPSETLSLTCTVSGGSISSYYWSWIRQPPGKGLEWIGYIYYSGSTNYNPSLKSRVTISVDTSKNQFSLKLSSVTAADTAVYYCARAVSYYYYGMDVWGQGTTVTVSS VL: DIQMTQSPSSLSASVGDRVTITCRTIQNINSYLNWYQQRPGKAPKLLIYATSSLQSGVPSRFSGSGSGTDFTLTISSLQPEDFATYYCQQTYSTLFTFGPGTKVDIKR', 'criterion met');

Strictly below 0.5 nM in Kd? H16-9.44 (antibody, V domains shown, also called Ha16-9.44) VH: LSLTCTVSGGSISSYYWSWIRQSAGKGLEWIGRIYTGVSTNYNPSLKSRVTMSVDTSKNQFSLKLSSVTAADTAVYYCARDYYDSSGYYPFDYWGQGTLVTVSS VL: DIQMTQSPSSLSASVGDRVTISCRASQGISNYLAWFQQKPGKAPKSLIYAASSLENGVPSKFSGSGSGTDFTLTISSLQPEDFATYYCQQYNSSPFTFGPGTKVDIRR
criterion not met

Strictly below 0.5 nM in Kd? H16-7.8 (antibody, V domains shown, Entries hold the leader and a portion of the constant region) VH: QVQLQESGPGLVKPSQTLSLTCTVSGGSISSGGYYWSWIRQHPGKGLEWIGIIYYSGSTYYNPSLKSRVTISVDTSKNQFSLKLNSVTAADTAVFYCARVAIVTTIPGGMDVWGQGTTVTVSS VL: EIVLTQSPDFQSVTPKEKVTITCRASQSIGISLHWYQQKPDQSPKLLIKYASQSFSGVPSRFSGSGSGTDFTLTINSLEAEDAATYYCHQSRSFPWTFGQGTKVEIKR
criterion met

Strictly below 0.5 nM in Kd? Ha16-1(3,5)18 (antibody, IgG1, V domains shown, The limits of VH (1-114) and VL (1-108) are stated in CLM-00001; the entries also hold a portion of the constant region; also called Ha16-1(3, 5)18.1; ATCC PTA-7452) VH: GPGLVKPSETLSLTCTVPGGSIRSYFWSWIRQPAGKGLEWIGRFYFSGSTNYNPSLKSRVTMSVDTSKNQFSLKLSSVTAADTAVYYCARDYGDHYYYYGMDVWGQGTTVTVSS VL: VLTQPPSVSAAPGQKVTISCSGSSSNIGNNYVSWYQQFPGTAPKFLIYDNNKRSSGIPDRFSGSKSGTSATLGITGLQTGDEADYYCGTWDSSLSAVIFGGGTKLTVL
criterion met

src = patent US20090022663A1
